Test system: Cyp3a11
Experiment: PXR target gene expression in pxr -/- mice after FKK6 gavage
Format: in vivo, mouse
Conditions: pxr-/- (PXR knockout), mouse, large intestine, oral; 500 μM, 5 doses (60 h), mean, × DMSO; read-out: Cyp3a11 fold induction, Large Intestine
Procedure: (Scheer et al, 2010) were administered 10% DMSO (n = 3) or FKK6 (n = 3) in 3 or 5 doses, with each dose interval of 12 h. Each gavage dose volume was 100 μl. 2–4 h after the dosing period, mice were sacrificed, and tissues were harvested for further analysis. The mouse studies were performed three independent times over an 18‐month period. All purchased mice were acclimatized in the Einstein vivarium for ~ 2 weeks before experiments started. […]. […]
recorded_endpoint: fold induction at 60 h, 500 µM

>  <molecule>
C#CCC(O)(c1ccncc1)c1cc2ccccc2n1S(=O)(=O)c1ccccc1 (stereo not shown) [FKK6]

>  <recorded_endpoint>
fold induction at 60 h, 500 µM

>  <result_number>
0.36

$$$$

* * *

test: Solubility of FKK6 in 10% DMSO; format: physicochemical; conditions: aqueous, aqueous with cosolvent or surfactant or cyclodextrin, room temperature, read-out: maximal solubility (saturation concentration)

>  <compound>
C#CCC(O)(c1ccncc1)c1cc2ccccc2n1S(=O)(=O)c1ccccc1 (stereo not shown)

>  <solubility>
~500 µM

$$$$

* * *

tested on: Cyp3a11; experiment: PXR target gene expression in hPXR mice (mice expressing the human PXR gene) after FKK6 gavage; assay type: in vivo, mouse; settings: both sexes, C57BL/6-Nr1i2tm1(NR1I2)Arte (hPXR mice), mouse, small intestine, oral, 500 μM, 5 doses (60 h), individual mice; read-out: Cyp3a11 fold induction, Small Intestine

>  <compound>
C#CCC(O)(c1ccncc1)c1cc2ccccc2n1S(=O)(=O)c1ccccc1 (stereo not shown) [FKK6]

>  <fold induction at 60 h, 500 µM>
0.85

$$$$

* * *

tested on: Cyp3a11; test: PXR target gene expression in C57BL/6 mice after FKK6 gavage; type: in vivo, mouse; conditions: both sexes, C57BL/6J, mouse, liver, oral, 500 μM, 500 μM FKK6 gavage every 12 h, 5 doses (60 h), individual mice

>  <molecule>
C#CCC(O)(c1ccncc1)c1cc2ccccc2n1S(=O)(=O)c1ccccc1 (stereo not shown) [FKK6]

>  <fold induction at 60 h>
1.72

$$$$

* * *

Biological target: PXR (Homo sapiens, UniProt O75469)
Sequence (O75469 1-434): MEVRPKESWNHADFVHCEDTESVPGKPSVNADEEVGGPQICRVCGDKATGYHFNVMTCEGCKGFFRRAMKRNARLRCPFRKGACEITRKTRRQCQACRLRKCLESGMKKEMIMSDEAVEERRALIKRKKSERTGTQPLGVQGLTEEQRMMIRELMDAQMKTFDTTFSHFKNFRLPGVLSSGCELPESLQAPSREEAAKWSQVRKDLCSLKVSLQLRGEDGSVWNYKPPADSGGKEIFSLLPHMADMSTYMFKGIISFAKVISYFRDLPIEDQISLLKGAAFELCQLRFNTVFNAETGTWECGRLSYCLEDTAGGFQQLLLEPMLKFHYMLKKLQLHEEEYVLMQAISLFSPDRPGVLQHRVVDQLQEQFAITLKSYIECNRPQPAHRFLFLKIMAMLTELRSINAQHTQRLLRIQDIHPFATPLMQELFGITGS
Assay: PXR reporter (p3A4-luc luciferase) assay in LS180 cells transiently transfected with wild-type PXR
Conditions: 1 uM, 24 h, over UT
The entries below come with measured FOLD INDUCTION of PXR reporter luciferase activity values attached.
recorded_endpoint: FOLD INDUCTION of PXR reporter luciferase activity

>  <compound>
CCOCn1c(C(O)(Cc2cc3ccccc3[nH]2)c2ccncc2)cc2ccccc21 (racemic)

>  <result>
5.0 fold

$$$$
>  <compound>
CC#CC(O)(c1ccncc1)c1cc2ccccc2n1COCC (centres unmarked)

>  <result>
6.7 fold

$$$$
>  <compound>
O=S(=O)(c1ccccc1)n1c(C(O)c2ccncc2)cc2ccccc21 (racemic)

>  <result>
13.4 fold

$$$$
>  <compound>
OC(c1ccncc1)(c1cc2ccccc2[nH]1)c1cc2ccccc2[nH]1

>  <result>
3.4 fold

$$$$
>  <compound>
O=S(=O)(c1ccccc1)n1c(C(O)Cc2cc3ccccc3[nH]2)cc2ccccc21 (racemic)

>  <result>
15.3 fold

$$$$
>  <compound>
CC#CC(O)(c1ccncc1)c1cc2ccccc2n1S(=O)(=O)c1ccccc1 (racemic)

>  <result>
23.5 fold

$$$$
>  <compound>
O=S(=O)(c1ccccc1)n1c(C(O)(Cc2cc3ccccc3[nH]2)c2ccncc2)cc2ccccc21 (racemic)

>  <result>
15.8 fold

$$$$
>  <compound>
OC(Cc1cc2ccccc2[nH]1)(c1ccncc1)c1cc2ccccc2[nH]1 (centres unmarked)

>  <result>
1.1 fold

$$$$
